B1: KLHL13 (parent)
chain: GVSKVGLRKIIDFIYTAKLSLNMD

- Variants of: B1
- Assay Info: protein stability index of a GFP-peptide fusion (GPS, HEK-293T) (PSI 1-6); higher = more stable;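 note: lentivirally expressed fusions sorted by FACS into six bins by GFP to DsRed ratio, PSI derived from sequencing read proportions per bin multiplied by bin number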
- Experimental Context: c terminus: a fixed tail appended
Assign class by protein stability index: not lower than 2 means Satisfied; lower than 2 means Not satisfied.

Previously resolved entries follow.
> print(dat)
   mutations            cat
1       A17S  Not satisfied
2       N22S      Satisfied
3        R8M  Not satisfied

Quick check, protein stability index >= 2? `V5A`
Satisfied

Quick check, protein stability index >= 2? `F13Q`
Not satisfied

Quick check, protein stability index >= 2? `G6E`
Not satisfied

Quick check, protein stability index >= 2? `M23N`
Not satisfied

Quick check, protein stability index >= 2? `L21E`
Not satisfied

Quick check, protein stability index >= 2? `D24V`
Satisfied

Quick check, protein stability index >= 2? `N22Q`
Not satisfied

Quick check, protein stability index >= 2? `S20W`
Not satisfied

Quick check, protein stability index >= 2? `I10Y`
Satisfied

Quick check, protein stability index >= 2? `T16W`
Not satisfied

Quick check, protein stability index >= 2? `Y15A`
Satisfied

Quick check, protein stability index >= 2? `V2S`
Not satisfied

Quick check, protein stability index >= 2? `A17P`
Satisfied

Quick check, protein stability index >= 2? `D12L`
Satisfied

Quick check, protein stability index >= 2? `S20H`
Satisfied

Quick check, protein stability index >= 2? `S3R`
Satisfied

Quick check, protein stability index >= 2? `I14V`
Satisfied

Quick check, protein stability index >= 2? `I11A`
Not satisfied
